target: Oxytocin receptor (Homo sapiens) (UniProt P30559); assay: Agonist activity at human OTR expressed in CHO cells assessed as increase in calcium flux after 60 to 120 mins by fluo-4 dye based FLIPR assay relative to control; type: functional, cell-based
Sequence (P30559 whole entry): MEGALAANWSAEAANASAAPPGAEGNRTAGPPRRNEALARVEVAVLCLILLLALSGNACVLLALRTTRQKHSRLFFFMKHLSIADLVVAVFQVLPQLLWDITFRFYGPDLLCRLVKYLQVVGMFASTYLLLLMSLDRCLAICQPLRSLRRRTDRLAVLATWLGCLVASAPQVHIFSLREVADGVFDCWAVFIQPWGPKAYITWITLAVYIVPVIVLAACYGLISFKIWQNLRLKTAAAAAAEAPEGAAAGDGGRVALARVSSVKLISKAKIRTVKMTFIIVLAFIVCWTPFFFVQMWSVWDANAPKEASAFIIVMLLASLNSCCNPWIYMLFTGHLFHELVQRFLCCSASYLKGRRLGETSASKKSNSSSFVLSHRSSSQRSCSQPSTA
Where a SMILES comes first, the peptide text is derived from it. Bridges are numbered along the chain shown (N, C = ends). [ ]: non-standard residue; d: D form. The star is where a group is joined. X5 = c1ccc(NC[C@@H]2CCCN2*)cc1; X9 = C1CCN(C2CCN(*)CC2)C1; X4 = COC[C@@H]1CCCN1*; X10 = CN1CCCN(*)CC1; X2 = C[C@H]1CCCN1*; Mpa = O=C(O)CCS
endpointLabel: Efficacy (%)

CC[C@H](C)[C@@H]1NC(=O)[C@H](Cc2ccc(O)cc2)NC(=O)CCSSC[C@@H](C(N)=O)NC(=O)[C@H](CC(N)=O)NC(=O)[C@H](CCC(N)=O)NC1=O: 90
CC[C@H](C)[C@@H]1NC(=O)[C@H](Cc2ccc(O)cc2)NC(=O)CCSSC[C@@H](C(=O)N2CCC[C@@H]2C)NC(=O)[C@H](CC(N)=O)NC(=O)[C@H](CCC(N)=O)NC1=O ([Mpa]YIQNC-X2; disulfide 1-6): 84
CC[C@H](C)[C@@H]1NC(=O)[C@H](Cc2ccc(O)cc2)NC(=O)CCSSC[C@@H](C(=O)N2CCC[C@H]2COC)NC(=O)[C@H](CC(N)=O)NC(=O)[C@H](CCC(N)=O)NC1=O ([Mpa]YIQNC-X4; disulfide 1-6): 91
CC[C@H](C)[C@@H]1NC(=O)[C@H](Cc2ccc(O)cc2)NC(=O)CCSSC[C@@H](C(=O)N2CCC[C@H]2CNc2ccccc2)NC(=O)[C@H](CC(N)=O)NC(=O)[C@H](CCC(N)=O)NC1=O ([Mpa]YIQNC-X5; disulfide 1-6): 76
CC[C@H](C)[C@@H]1NC(=O)[C@H](Cc2ccc(O)cc2)NC(=O)CCSSC[C@@H](C(=O)N2CCC[C@H]2C(=O)N2CCC(N3CCCC3)CC2)NC(=O)[C@H](CC(N)=O)NC(=O)[C@H](CCC(N)=O)NC1=O ([Mpa]YIQNCP-X9; disulfide 1-6): 98
CC[C@H](C)[C@@H]1NC(=O)[C@H](Cc2ccc(O)cc2)NC(=O)CCSSC[C@@H](C(=O)N2CCC[C@H]2C(=O)N2CCCN(C)CC2)NC(=O)[C@H](CC(N)=O)NC(=O)[C@H](CCC(N)=O)NC1=O ([Mpa]YIQNCP-X10; disulfide 1-6): 98
